Experiment: Intravenous and intraduodenal (bolus) bioavailability of zanamivir from Capmul MCM L8 25, 50, 75 µL (Example 7)
Conditions: male, Sprague-Dawley, rat, in vivo, 1.5 mg, t1/2, ID bolus 1.5 mg/animal, 50 µL Capmul MCM L8, Ex.7; individual rats
Procedure: Male Sprague-Dawley rats (Hilltop Labs), 3 animals per treatment group, 250-350 grams in weight, were fitted with a jugular vein cannula (JVC). Animals intended for intraduodenal dosing were also fitted with one or more intraduodenal cannula (IDC) and those intended for intravenous dosing were fitted with a second JVC. […] In this example, the bioavailability of Zanamivir was evaluated after intraduodenal doses in male Sprague-Dawley rats. […] Plasma levels were determined by LC-MS/MS analysis. […]
measured_parameter: half-life (min)
Answer with a number only, understood to be in min.

// half-life lookup, key: CC(=O)NC1C(NC(=N)N)C=C(C(=O)O)OC1C(O)C(O)CO (stereo not shown)
21.8

====

Assay: Intravenous and intraduodenal (bolus) bioavailability of zanamivir from Capmul MCM L8 25, 50, 75 µL (Example 7)
Conditions: male, Sprague-Dawley, rat, in vivo, 1.5 mg, t1/2, summary; intraduodenal, 1.5 mg/animal, 50 μL Capmul MCM L8
measured_parameter: half-life
Express your answer as a number followed by its unit.

// half-life lookup, key: CC(=O)NC1C(NC(=N)N)C=C(C(=O)O)OC1C(O)C(O)CO (stereo not shown)
24.6 min

====

Experiment: Intraduodenal bioavailability of zanamivir from glycerol and PBS formulations, enhancer pre-dose (Example 6)
Settings: male, Sprague-Dawley, rat, in vivo, 1.5 mg, tmax, ID 1.5 mg/animal, 50 µL PBS, 50 µL blank Capmul MCM L8 -2 hr; mean
measured_parameter: Tmax (h)
Answer with a number only, understood to be in h.

// Tmax lookup, key: CC(=O)NC1C(NC(=N)N)C=C(C(=O)O)OC1C(O)C(O)CO (stereo not shown)
1

====

Assay: Intravenous and intraduodenal (bolus) bioavailability of zanamivir from Capmul MCM L8 25, 50, 75 µL (Example 7)
Conditions: male, Sprague-Dawley, rat, in vivo, 1.5 mg/animal, Plasma concentration, ID bolus 1.5 mg/animal, 25 µL Capmul MCM L8; 1.5 hr; individual rats
measured_parameter: concentration at 1.5 hr (ng/mL)
Answer with a number only, understood to be in ng/mL.

// concentration at 1.5 hr lookup, key: CC(=O)NC1C(NC(=N)N)C=C(C(=O)O)OC1C(O)C(O)CO (stereo not shown)
145

====

Experiment: Intraduodenal bioavailability of zanamivir from glycerol and PBS formulations, enhancer pre-dose (Example 6)
Conditions: male, Sprague-Dawley, rat, in vivo, 1.5 mg/animal, Plasma concentration, ID 1.5 mg/animal, 50 µL PBS, 50 µL blank Capmul MCM L8 -2 hr; 0.25 hr; individual rats
measured_parameter: concentration at 0.25 hr (ng/mL)
Answer with a number only, understood to be in ng/mL.

// concentration at 0.25 hr lookup, key: CC(=O)NC1C(NC(=N)N)C=C(C(=O)O)OC1C(O)C(O)CO (stereo not shown)
33.3

====

Test: Intraduodenal bioavailability of zanamivir from glycerol and PBS formulations, enhancer pre-dose (Example 6)
Conditions: male, Sprague-Dawley, rat, in vivo, 1.5 mg/animal, Plasma concentration, ID 1.5 mg/animal, 150 µL Glycerol; 0.83 hr; individual rats
measured_parameter: concentration at 0.83 hr (µg/mL)
Answer with a number only, understood to be in µg/mL.

// concentration at 0.83 hr lookup, key: CC(=O)NC1C(NC(=N)N)C=C(C(=O)O)OC1C(O)C(O)CO (stereo not shown)
0.139

====

Experiment: Intraduodenal bioavailability of zanamivir from glycerol and PBS formulations, enhancer pre-dose (Example 6)
Settings: male, Sprague-Dawley, rat, in vivo, 1.5 mg/animal, Plasma concentration, ID 1.5 mg/animal, 100 µL Glycerol; 0.5 hr; individual rats
measured_parameter: concentration at 0.5 hr
Express your answer as a number followed by its unit.

// concentration at 0.5 hr lookup, key: CC(=O)NC1C(NC(=N)N)C=C(C(=O)O)OC1C(O)C(O)CO (stereo not shown)
51.4 ng/mL

====

Experiment: Intravenous and intraduodenal bioavailability of zanamivir from three formulations (Example 5)
Conditions: male, Sprague-Dawley, rat, in vivo, 1.5 mg/animal, Plasma concentration, ID 1.5 mg/animal, Capmul MCM L8 50 µL, Ex.5; 0.25 hr; mean
measured_parameter: concentration at 0.25 hr (ng/mL)
Answer with a number only, understood to be in ng/mL.

// concentration at 0.25 hr lookup, key: CC(=O)NC1C(NC(=N)N)C=C(C(=O)O)OC1C(O)C(O)CO (stereo not shown)
4350

====

Assay: Intravenous and intraduodenal (bolus) bioavailability of zanamivir from Capmul MCM L8 25, 50, 75 µL (Example 7)
Conditions: male, Sprague-Dawley, rat, in vivo, iv, 1.5 mg/animal, Plasma concentration, IV 1.5 mg/animal, Normal Saline, Ex.7; 0.5 hr; mean
measured_parameter: concentration at 0.5 hr (ng/mL)
Answer with a number only, understood to be in ng/mL.

// concentration at 0.5 hr lookup, key: CC(=O)NC1C(NC(=N)N)C=C(C(=O)O)OC1C(O)C(O)CO (stereo not shown) [Zanamivir]
6070

====

Assay: Intravenous and intraduodenal bioavailability of zanamivir from three formulations (Example 5)
Conditions: male, Sprague-Dawley, rat, in vivo, 1.5 mg/animal, Plasma concentration, ID 1.5 mg/animal, PBS 50 µL; 1.0 hr; mean
measured_parameter: concentration at 1 hr (ng/mL)
Answer with a number only, understood to be in ng/mL.

// concentration at 1 hr lookup, key: CC(=O)NC1C(NC(=N)N)C=C(C(=O)O)OC1C(O)C(O)CO (stereo not shown)
86.4

====

Test: Intraduodenal bioavailability of zanamivir from glycerol and PBS formulations, enhancer pre-dose (Example 6)
Details: male, Sprague-Dawley, rat, in vivo, 1.5 mg/animal, Plasma concentration, ID 1.5 mg/animal, 50 µL PBS, 150 µL blank glycerol -2 hr; 0.83 hr; mean
measured_parameter: concentration at 0.83 hr (ng/mL)
Answer with a number only, understood to be in ng/mL.

// concentration at 0.83 hr lookup, key: CC(=O)NC1C(NC(=N)N)C=C(C(=O)O)OC1C(O)C(O)CO (stereo not shown) [Zanamivir]
24.4

====

Experiment: Intraduodenal bioavailability of zanamivir from glycerol and PBS formulations, enhancer pre-dose (Example 6)
Details: male, Sprague-Dawley, rat, in vivo, 1.5 mg/animal, Plasma concentration, ID 1.5 mg/animal, 100 µL Glycerol; 0.25 hr; individual rats
measured_parameter: concentration at 0.25 hr (µg/mL)
Answer with a number only, understood to be in µg/mL.

// concentration at 0.25 hr lookup, key: CC(=O)NC1C(NC(=N)N)C=C(C(=O)O)OC1C(O)C(O)CO (stereo not shown)
0.052

====

Test: Intravenous and intraduodenal (bolus) bioavailability of zanamivir from Capmul MCM L8 25, 50, 75 µL (Example 7)
Settings: male, Sprague-Dawley, rat, in vivo, iv, 1.5 mg, CL, IV 1.5 mg/animal, Normal Saline, Ex.7; individual rats
measured_parameter: clearance (mL/min/kg)
Answer with a number only, understood to be in mL/min/kg.

// clearance lookup, key: CC(=O)NC1C(NC(=N)N)C=C(C(=O)O)OC1C(O)C(O)CO (stereo not shown) [Zanamivir]
10.5

====

Experiment: Intravenous and intraduodenal bioavailability of zanamivir from three formulations (Example 5)
Conditions: male, Sprague-Dawley, rat, in vivo, iv, 1.5 mg, tmax, IV 1.5 mg/animal, Normal Saline, Ex.5; mean
measured_parameter: Tmax (h)
Answer with a number only, understood to be in h.

// Tmax lookup, key: CC(=O)NC1C(NC(=N)N)C=C(C(=O)O)OC1C(O)C(O)CO (stereo not shown) [Zanamivir]
0

====

Assay: Intravenous and intraduodenal bioavailability of zanamivir from three formulations (Example 5)
Conditions: male, Sprague-Dawley, rat, in vivo, 1.5 mg/animal, Plasma concentration, ID 1.5 mg/animal, Glycerol 50 µL; 0.25 hr; individual rats
measured_parameter: concentration at 0.25 hr
Express your answer as a number followed by its unit.

// concentration at 0.25 hr lookup, key: CC(=O)NC1C(NC(=N)N)C=C(C(=O)O)OC1C(O)C(O)CO (stereo not shown) [Zanamivir]
1060 ng/mL

====

Assay: Intraduodenal bioavailability of zanamivir from glycerol and PBS formulations, enhancer pre-dose (Example 6)
Conditions: male, Sprague-Dawley, rat, in vivo, 1.5 mg/animal, Plasma concentration, ID 1.5 mg/animal, 50 µL PBS, 150 µL blank glycerol -2 hr; 1.0 hr; mean
measured_parameter: concentration at 1 hr (ng/mL)
Answer with a number only, understood to be in ng/mL.

// concentration at 1 hr lookup, key: CC(=O)NC1C(NC(=N)N)C=C(C(=O)O)OC1C(O)C(O)CO (stereo not shown) [Zanamivir]
38.2

====

Test: Intravenous and intraduodenal bioavailability of zanamivir from three formulations (Example 5)
Conditions: male, Sprague-Dawley, rat, in vivo, iv, 1.5 mg, Vss, IV 1.5 mg/animal, Normal Saline, Ex.5; mean
measured_parameter: Vd
Express your answer as a number followed by its unit.

// Vd lookup, key: CC(=O)NC1C(NC(=N)N)C=C(C(=O)O)OC1C(O)C(O)CO (stereo not shown)
0.24 L/kg
